The values you see were collected from patent EP4700023A1.

# measurementNotes: Pharmacokinetic evaluation in rats
# Format: in vivo
# particulars: plasma; Rat PK, oral (PO), 10 mg/kg
measuredParameter: AUC(0-inf) (ng·h/mL)
Quick reminder: number only, in ng·h/mL, skip the unit.

// O=C(O)c1ccc2nc(CN3CCC(c4ccccc4OCc4ccc(Cl)cc4F)CC3)n(C[C@@H]3CCO3)c2c1 [Compound of formula I] : AUC(0-inf) value = 401
